Exercise: for every item that follows, state its recorded TGI.
# System: IGROV1 ovarian
# METHOD SUMMARY: NCI tumour cell line growth inhibition, 48 h

Report TGI for Nc1ccc2c(c1)CN1C(=O)c3ccccc3C1=N2 please.
123 µM

Repeat for the following compound: Cc1ns/c(=N\C(=S)N(C)C)n1C
> 100 µM

Here is the next compound: COC(=O)CNC(=O)/C=C/[C@H](O[Si](C)(C)C(C)(C)C)[C@H](/C=C/C(=O)NCC(=O)OC)O[Si](C)(C)C(C)(C)C
> 25 µM

Please answer likewise for CCOC(=O)NNC(=O)NC12CC3CC(CC(C3)C1)C2
> 100 µM

Same question for CC(=O)Nc1ncc2c(n1)-c1ccccc1OC2 please.
> 100 µM

Another compound to check: CC1(C)CC2(C)OC2C2(C1)N=NC(=Nc1ccccc1)O2 (centres undefined)
5.99 µM

Request: CCCCCCCCCCCCCCCCCC1=NC(C)(C)CN1CCO
3.11 µM

Record: c1ccc(COc2ncccc2C2SCCCS2)cc1
> 100 µM

Next entry: COc1cc2c(cc1OC)C1Cc3ccccc3CN1CCC2 (centres undefined)
> 100 µM

Now consider COc1cc2c(cc1OC)[C@H]1C(=O)c3cc4c(cc3[C@H]1N(C)C2=O)OCO4 and answer again.
> 100 µM

Now consider CCCCCCCCCCCCNC(=O)[C@H]1CSC(c2ccc(OC)c(F)c2)N1 (some centres undefined) and answer again.
0.902 µM

Next compound up: Cc1cc2c(cc1Cl)SC1=NN(C)C(c3ccccc3O)N1S2(=O)=O (centres undefined)
> 100 µM

How about this compound: C=CC(C)(C)n1cc(C2=C(O)C(=O)C(c3cn(C(C)(C)C=C)c4ccccc34)=C(OC(C)=O)C2=O)c2ccccc21
1.65 µM

Another compound to check: COc1ccccc1NC(=O)C(=O)C1C(=O)Nc2ccccc2S1=O (centres undefined)
> 100 µM

Now give it for O=c1[nH]c(-c2ccccn2)nc2sc3c(c12)CCCCCC3 too.
> 100 µM

Would you mind doing CCCCCCCCCCCCCCCC(=O)OCC1OC(n2ccc(N)nc2=O)C(O)C1O (centres undefined) as well?
> 100 µM

Now try Cc1csc(Nc2nc(-c3cccc(Cl)c3)nc(C(Cl)(Cl)Cl)n2)n1 .
> 33.3 µM

Would you kindly repeat that for CC(=O)Nc1ccc(-n2cnc3cc(-c4ccc(OCCN5CCCCC5)cc4)ccc32)cc1 ?
11.5 µM

Also need CCCCCCN(CCCCCC)CC(O)c1cccc2ccc(Cl)cc12 (centres undefined) , thanks.
23.8 µM

And then CSc1nc2c(ncn2C2OCC(O)C(O)C2O)c(=O)[nH]1 (centres undefined) , what is it?
> 100 µM

Same lookup for C/C=C\C(CC(=O)O)CC(=O)NCCC1CN(S(=O)(=O)C(F)(F)F)c2ccccc21 (centres undefined) , please.
> 100 µM

Another compound: COC(=O)C1CCC(=NC2c3ccccc3-c3ccccc32)N1 (centres undefined)
> 100 µM

Same question for COc1cc(/C=C\c2cccnc2Nc2ccccc2)cc(OC)c1OC please.
> 100 µM

Same lookup for CSC1(SC)CCCCCCCCCCC1 , please.
> 100 µM

Let us now turn to COc1cccc(N2N=C3c4ccccc4-n4c(nc5ccccc54)C3C2N)c1 (centres undefined)
> 100 µM

// next record N#Cc1nnc2c3c(-c4ccc(Cl)cc4)c(C#N)c(=O)[nH]c3nn2c1N
9.65 µM

Can you handle CN(C)CCNc1nc2ccccc2c2c1C(=O)c1ccccc1-2 next?
0.807 µM

Record: CN(C)CCNC(=O)c1cccc2c(NC(CS)C(=O)O)c3ccccc3nc12 (centres undefined)
28 µM

Another compound to look at: O=C(CC(C(=O)O)N1CCOCC1)c1ccccc1 (centres undefined)
63.2 µM

Same thing, different compound: COc1ccc(S(=O)(=O)Nc2ccc(-c3csc(N4C(=O)/C(=C/C=C\c5ccccc5)N=C4c4ccccc4)n3)cc2)cc1Cl
56.5 µM

// repeat for CCOP(=O)(OCC)C(F)(F)CC1CCCCC1 and report
> 10 µM

Check Cc1ccc(OCCCCCCNCCO)c(C)c1 too.
35.3 µM

Item: CCC1(O)CN(CCOC)[C@H]2C[C@@H]1C(=O)c1[nH]c3ccccc3c12 (some centres undefined)
> 100 µM

// query: COC(=O)C(Cc1ccccc1)NC(=O)CCCNC(=O)OCc1ccccc1 (centres undefined)
> 100 µM

Thanks! And CC(C)CC1c2[nH]c3ccccc3c2C[C@H]2C(=O)NC(COC(C)(C)C)C(=O)N12 (some centres undefined) ?
63.1 µM

Another compound to look at: Cc1cccc(N2C(=O)/C(=C/c3ccc(N(CCC#N)CCC#N)cc3C)N=C2c2cc([N+](=O)[O-])ccc2Cl)c1
> 100 µM

And N#Cc1ccc(N2Cc3cc(Cl)ccc3OC3=C2C(=O)N(Cc2ccccc2)C3=O)cc1 ?
4.88 µM

Then what about the compound CN1c2ccccc2C(=O)Nc2cnc(Cl)nc21 ?
> 100 µM

Follow-up entry: Cc1c(-c2coc(-c3ccc(Cl)cc3)n2)c(=O)n(-c2ccccc2)n1C
> 100 µM

For C=C1C(=O)C[C@@]23CCC[C@@]12CC(O)C3 (some centres undefined) then?
12.8 µM

Next up: C=C1c2nc3ccccc3n2C=C(c2ccccc2)N1c1ccc(OC)cc1
35.8 µM

Entry Cc1ccc(Nc2nnc3n2S(=O)(=O)c2cc(C)c(Cl)cc2S3)cc1 please
> 100 µM

Please answer likewise for NC(CO)c1ccccc1 (centres undefined)
> 100 µM

Same question for CNC(=O)OCC1=C(COC(=O)NC)CN(c2ccccc2)C1 please.
> 100 µM

The measurements presented in this section are drawn from PubChem BioAssay (NCI).
